Test: Oral bioavailability in Balb/c mouse at 10 mg/kg after 1 hr
Format: ADME, organism-based
Settings: Balb/c, in vivo
Readout Label: bioavailability (%)

>  <Compound Structure>
COc1ccc(NC(=O)N2CCN(c3nc(N)nc4c3ncn4C)[C@@H](C)C2)c(C)c1

>  <bioavailability (%)>
39

$$$$

1. COc1ccc(NC(=O)N2CCN(c3nc(N)nc4c3cnn4C)[C@@H](C)C2)c(C)c1
2. COc1ccc(NC(=O)N2CCN(c3nc(N)nc4scnc34)[C@@H](C)C2)cc1
## Input Parameter check: reported bioavailability is higher for which label, 1 or 2 ? Give the chosen item's label as your response.
## Output 1
(1: 100%, 2: 68%)

* * *

Assay: in vitro
Conditions: mouse, liver microsomes
Readout Label: microsomal CLint at 0.75 h, 3 µM (µL/min/mg)

Would you please look over these solved cases?
>  <Compound Structure>
COc1ccc(NC(=O)N2CCN(c3nc(N)nc4c3ncn4C)[C@@H](C)C2)c(C)c1

>  <Unit Annotation>
µL/min/mg

>  <Recorded Value>
10

$$$$
>  <Compound Structure>
Nc1nc(N2CCN(C(=O)COc3ccc(Cl)cc3)CC2)c2nc(-c3cccnc3)sc2n1

>  <Unit Annotation>
µL/min/mg

>  <Recorded Value>
133

$$$$
>  <Compound Structure>
COc1ccc(NC(=O)N2CCN(c3nc(N)nc4scnc34)CC2)cc1

>  <Unit Annotation>
µL/min/mg

>  <Recorded Value>
15

$$$$
>  <Compound Structure>
COc1ccc(NC(=O)N2CCN(c3nc(N)nc4scnc34)[C@@H](C)C2)cc1

>  <Unit Annotation>
µL/min/mg

>  <Recorded Value>
35

$$$$
>  <Compound Structure>
COc1ccc(NC(=O)N2CCN(c3nc(N)nc4sc(-c5cccnc5)nc34)CC2)cc1

>  <Unit Annotation>
µL/min/mg

>  <Recorded Value>
87

$$$$

a. COc1ccc(NC(=O)N2CCN(c3nc(N)nc4c3cnn4C)[C@@H](C)C2)c(C)c1
b. COc1ccc(NC(=O)N2CCN(c3nc(N)nc4sc(-c5ccccc5)nc34)CC2)cc1
## Input API: POST /compare with a and b ; response names the item with higher microsomal CLint at 0.75 h, 3 µM. Could you answer with the label of the item you picked?
## Output b

* * *

Assay: Thermodynamic solubility of the compound in pH 7.4 solution after 90 mins by UVLC-MS analysis
Format: physicochemical
Details: buffer, pH 7.4, 1.5 h
Readout Label: Therm_solubility

>  <Compound>
COc1ccc(NC(=O)N2C[C@@H](C)N(c3nc(N)nc4scnc34)[C@@H](C)C2)cc1

>  <Recorded Value>
Nd(Insoluble)

$$$$
>  <Compound>
COc1ccc(NC(=O)N2CCN(c3nc(N)nc4scnc34)C(C)C2C)cc1 (stereo not drawn)

>  <Recorded Value>
Nd(Insoluble)

$$$$
>  <Compound>
COc1ccc(NC(=O)N2CCN(c3nc(N)nc4scnc34)C(C)C2)cc1 (stereo not drawn)

>  <Recorded Value>
Nd(Insoluble)

$$$$
>  <Compound>
COc1ccc(NC(=O)N2CCN(c3nc(N)nc4scnc34)[C@H](C)C2)c(C)c1

>  <Recorded Value>
Nd(Insoluble)

$$$$
>  <Compound>
COc1ccc(NC(=O)N2C3CCC2CN(c2nc(N)nc4scnc24)C3)cc1

>  <Recorded Value>
Nd(Insoluble)

$$$$
>  <Compound>
COc1ccc(NC(=O)N2CCN(c3nc(N)nc4scnc34)CC2C)cc1 (stereo not drawn)

>  <Recorded Value>
Nd(Insoluble)

$$$$

## Input Respond only with Therm_solubility recorded for "COc1ccc(NC(=O)N2C[C@H](C)N(c3nc(N)nc4scnc34)C[C@H]2C)cc1"
## Output Nd(Insoluble)

## Input Give the value of Therm_solubility reported for the following: "COc1ccc(NC(=O)N2CC3CCC(C2)N3c2nc(N)nc3scnc23)cc1"
## Output Nd(Insoluble)
